Each item that follows carries a reported inhibition at 1 µM.
# system: IRAK-4 enzyme (Homo sapiens, UniProt Q9NWZ3)
# Construct: purchased Millipore, USA
# Sequence (Q9NWZ3 1-460): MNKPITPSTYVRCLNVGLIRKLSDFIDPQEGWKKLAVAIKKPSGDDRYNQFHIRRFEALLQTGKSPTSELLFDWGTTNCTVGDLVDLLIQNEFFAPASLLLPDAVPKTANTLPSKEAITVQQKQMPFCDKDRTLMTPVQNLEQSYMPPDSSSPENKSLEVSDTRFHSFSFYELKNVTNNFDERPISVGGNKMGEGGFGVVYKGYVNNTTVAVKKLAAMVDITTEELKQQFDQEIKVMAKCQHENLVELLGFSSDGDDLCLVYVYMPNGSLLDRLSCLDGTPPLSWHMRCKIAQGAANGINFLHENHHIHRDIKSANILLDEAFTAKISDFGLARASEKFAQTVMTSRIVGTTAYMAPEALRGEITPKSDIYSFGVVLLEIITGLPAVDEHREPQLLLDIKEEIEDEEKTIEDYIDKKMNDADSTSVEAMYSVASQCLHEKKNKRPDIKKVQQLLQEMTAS
# method: IRAK-4 Biochemical Assay (TR-FRET)
# measurementConditions: 1 μM compound, recombinant IRAK-4 kinase, 20 μM ATP
Counter-ions that a name gives are not always drawn.
The reply should read as a number followed by its unit.

Recorded results for 2 compounds are shown here.
Cn1cc2cc(NC(=O)c3cccc(-c4ccnc(N)c4)n3)c(N3CCCCC3)cc2n1 [Example 43, hydrochloride]
96%
Cc1cc(-c2nc(C(=O)Nc3cc4cn(C)nc4nc3N3CCCCC3)co2)ccn1 [Example 13, hydrochloride]
99%

query: Observed inhibition at 1 µM on IRAK-4 enzyme (Homo sapiens, UniProt Q9NWZ3) for O=C(Nc1cc2cn(CCN3CCOCC3)nc2cc1N1CCCCC1)c1cccc(N2CCC(O)C2)n1 (stereo not shown) , please.
result: 97%

query: And "Cc1cc(-c2nc(C(=O)Nc3cc4cnn(CCCN5CCOCC5)c4cc3N3CCC(O)CC3)co2)ccn1" ?
result: 99%

query: And "Cc1nn(C)c2nc(N3CCC(CO)CC3)c(NC(=O)c3coc(-c4ccnc(N)c4)n3)cc12" ?
result: 99%

query: And "Cn1cc2cc(NC(=O)c3coc(-c4ccnc(N)c4)n3)c(N3CCCCC3)nc2n1" ?
result: 99%

query: And Cc1nn(C)c2cc(N3CCC(CO)CC3)c(NC(=O)c3cnn4cccnc34)cc12 [Example 8, hydrochloride] ?
result: 91%

query: And Cc1cc2nn(C)cc2cc1NC(=O)c1cccc(N2CCC(O)C2)n1 (stereo not shown) ?
result: 82%

* * *

# system: IRAK-4 enzyme (Homo sapiens)
# Construct: purchased Millipore, USA
# Sequence (Q9NWZ3 1-460): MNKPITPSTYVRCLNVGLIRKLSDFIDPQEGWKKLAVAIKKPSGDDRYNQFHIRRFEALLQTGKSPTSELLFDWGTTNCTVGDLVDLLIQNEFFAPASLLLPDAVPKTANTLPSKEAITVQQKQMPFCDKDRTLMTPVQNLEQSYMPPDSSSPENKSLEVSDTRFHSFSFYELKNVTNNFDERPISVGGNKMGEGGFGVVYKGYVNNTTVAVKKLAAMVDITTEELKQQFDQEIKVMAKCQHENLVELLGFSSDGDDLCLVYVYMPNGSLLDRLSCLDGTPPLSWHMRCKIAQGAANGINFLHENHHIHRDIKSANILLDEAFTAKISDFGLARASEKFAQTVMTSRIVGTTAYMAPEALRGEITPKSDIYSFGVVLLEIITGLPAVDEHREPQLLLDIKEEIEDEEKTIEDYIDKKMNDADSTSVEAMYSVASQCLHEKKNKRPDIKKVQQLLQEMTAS
# method: IRAK-4 Biochemical Assay (TR-FRET)
# measurementConditions: 0.1 μM compound, recombinant IRAK-4 kinase, 20 μM ATP
Structures can show the parent of a compound that is named as a salt.
Kindly return 1 if reported inhibition at 0.1 µM is no lower than 90%; return -1 if it is lower.

Answered examples (3):
COCCn1ncc2cc(NC(=O)c3coc(-c4ccnc(C)c4)n3)c(N3CCC(O)CC3)nc21
-1
Cn1cc2cc(NC(=O)c3cccc(-c4cccc(N)n4)n3)c(C3CC3)cc2n1 [Example 51, hydrochloride]
-1
Cc1cc(-c2nc(C(=O)Nc3cc4cnn(CCN5CCOCC5)c4cc3N3CCC(O)CC3)co2)ccn1
1

query: Reported inhibition at 0.1 µM reaches at least 90% for "CCOCC1CCN(c2cc3c(cc2NC(=O)c2coc(-c4ccnc(N)c4)n2)c(C)nn3C)CC1" ?
result: 1

query: And "Cn1cc2cc(NC(=O)c3cccc(N4CC[C@@H](O)C4)n3)c(N3CCCCC3)cc2n1" ?
result: 1

query: And Cc1cc(-c2nc(C(=O)Nc3cc4cn(C)nc4nc3N3CCCCC3)co2)ccn1 [Example 13, hydrochloride] ?
result: 1

query: And O=C(Nc1cc2cn(CCN3CCOCC3)nc2cc1N1CCCCC1)c1cccc(N2CCC(O)C2)n1 (stereo not shown) ?
result: 1

query: And "Cn1cc2cc(NC(=O)c3coc(-c4cccc(N)n4)n3)c(N3CCOCC3)cc2n1" ?
result: -1

query: And "COCCn1nc(C)c2cc(NC(=O)c3coc(-c4ccnc(N)c4)n3)c(N3CCC(CO)CC3)nc21" ?
result: -1
